Biological target: Prostaglandin G/H synthase 1 (Ovis aries, UniProt P05979)
Sequence (P05979 whole entry): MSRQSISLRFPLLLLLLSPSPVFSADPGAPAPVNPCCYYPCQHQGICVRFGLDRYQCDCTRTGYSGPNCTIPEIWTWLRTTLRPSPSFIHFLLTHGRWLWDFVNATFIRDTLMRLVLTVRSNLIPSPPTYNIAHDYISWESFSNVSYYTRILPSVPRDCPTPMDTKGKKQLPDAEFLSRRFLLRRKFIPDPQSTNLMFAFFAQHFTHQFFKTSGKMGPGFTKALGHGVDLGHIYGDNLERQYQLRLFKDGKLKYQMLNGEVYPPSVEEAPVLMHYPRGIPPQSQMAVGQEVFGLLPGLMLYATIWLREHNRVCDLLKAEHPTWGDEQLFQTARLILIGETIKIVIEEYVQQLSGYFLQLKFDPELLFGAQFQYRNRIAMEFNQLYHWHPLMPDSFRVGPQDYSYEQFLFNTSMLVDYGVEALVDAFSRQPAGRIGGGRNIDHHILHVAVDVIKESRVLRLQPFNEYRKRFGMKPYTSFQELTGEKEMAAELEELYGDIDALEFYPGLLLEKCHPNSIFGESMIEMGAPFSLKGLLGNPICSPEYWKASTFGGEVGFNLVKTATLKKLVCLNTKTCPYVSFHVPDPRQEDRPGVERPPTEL
outcomeMeasure: IC50
# output: numeric value plus its unit

Challenge: What value of IC50 has been reported for the following compound? CS(=O)(=O)c1ccc(-c2nnnn2-c2ccc(F)cc2)cc1
Response given: 640 µM

====

# Ratio IC50 per entry
Test: Selectivity index ratio of IC50 for ovine COX-1 to IC50 for human recombinant COX-2
No unit in the answer, only the number.

cpdSmiles | Ratio IC50
COc1ccc(-n2nnnc2-c2ccc(S(C)(=O)=O)cc2)cc1 | 210
CS(=O)(=O)c1ccc(-c2nnnn2-c2ccc(F)cc2)cc1 | 237
CS(=O)(=O)c1ccc(-c2nnnn2-c2ccccc2)cc1 | 18.5

Challenge: Give the measured Ratio IC50 of CS(=O)(=O)c1ccc(-c2nnnn2-c2ccc(Cl)cc2)cc1 .
Response given: 4.5

Challenge: Now try Cc1ccc(-n2nnnc2-c2ccc(S(C)(=O)=O)cc2)cc1 .
Response given: 180

====

Quick reference: pIC50 of the listed items.
Target: Prostaglandin G/H synthase 2 (Homo sapiens, UniProt P35354)
Sequence (P35354 whole entry): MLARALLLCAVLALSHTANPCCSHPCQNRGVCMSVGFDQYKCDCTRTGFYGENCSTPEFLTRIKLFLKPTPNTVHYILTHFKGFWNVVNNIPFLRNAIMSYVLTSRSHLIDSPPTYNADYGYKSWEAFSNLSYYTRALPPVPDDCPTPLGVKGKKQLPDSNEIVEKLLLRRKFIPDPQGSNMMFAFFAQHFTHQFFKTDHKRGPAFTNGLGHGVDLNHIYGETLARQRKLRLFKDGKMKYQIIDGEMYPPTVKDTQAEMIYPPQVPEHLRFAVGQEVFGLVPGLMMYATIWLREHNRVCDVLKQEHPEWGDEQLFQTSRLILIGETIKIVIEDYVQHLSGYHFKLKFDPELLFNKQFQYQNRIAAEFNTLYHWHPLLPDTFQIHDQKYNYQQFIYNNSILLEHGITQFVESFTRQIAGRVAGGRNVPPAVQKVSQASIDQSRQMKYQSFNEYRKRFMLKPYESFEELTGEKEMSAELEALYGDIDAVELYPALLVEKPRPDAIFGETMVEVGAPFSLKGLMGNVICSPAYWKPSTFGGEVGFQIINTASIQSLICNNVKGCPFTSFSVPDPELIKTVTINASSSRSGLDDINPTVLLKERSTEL
Experiment: Inhibition of human recombinant COX-2 by fluorescence assay
Scale explanation: pIC50 corresponds to minus log10 of a concentration expressed in moles per litre.

cpdSmiles | resultValue
CS(=O)(=O)c1ccc(-c2nnnn2-c2ccc(Cl)cc2)cc1 | 3.96
CS(=O)(=O)c1ccc(-c2nnnn2-c2ccccc2)cc1 | 3.70
CS(=O)(=O)c1ccc(-c2nnnn2-c2ccc(F)cc2)cc1 | 5.57
COc1ccc(-n2nnnc2-c2ccc(S(C)(=O)=O)cc2)cc1 | 5.70

Below: the item to evaluate.
Challenge: What measured pIC50 goes with Cc1ccc(-n2nnnc2-c2ccc(S(C)(=O)=O)cc2)cc1 ?
Response given: 4.35

Ref: ChEMBL document CHEMBL1681719
